# Test: Half life in C57BL/6 mouse plasma at 10 mg/kg, po
# Assay type: ADME, organism-based
Attribute measured: half-life (h)
Number only, in h; omit the unit.

Entry under test: `C/C=C(/C)C#Cc1ccc(CCC(=O)O)c(F)c1` . Its half-life was 1.65

====

# Test: AUC (0 to infinity) in C57BL/6 mouse plasma at 10 mg/kg, po
# Format: ADME, organism-based
# Parameters: dose 10 mg/kg, route oral, time infinity
Attribute measured: AUC(0-inf) (µM·h)
Report as a plain number; the unit µM·h is understood.

// AUC(0-inf) lookup, compound = `C/C=C(/C)C#Cc1ccc(CCC(=O)O)c(F)c1` , result: 138
